Provenance of the data: patent US20230176070A1

Target: T1, human serum albumin (human, UniProt P02768 25-609)
T1 construct: In the mutant screen wild type HSA came from medium of transfected HeLa cells; also called HSA; wild type HSA
T1 sequence (P02768 25-609 limits assumed): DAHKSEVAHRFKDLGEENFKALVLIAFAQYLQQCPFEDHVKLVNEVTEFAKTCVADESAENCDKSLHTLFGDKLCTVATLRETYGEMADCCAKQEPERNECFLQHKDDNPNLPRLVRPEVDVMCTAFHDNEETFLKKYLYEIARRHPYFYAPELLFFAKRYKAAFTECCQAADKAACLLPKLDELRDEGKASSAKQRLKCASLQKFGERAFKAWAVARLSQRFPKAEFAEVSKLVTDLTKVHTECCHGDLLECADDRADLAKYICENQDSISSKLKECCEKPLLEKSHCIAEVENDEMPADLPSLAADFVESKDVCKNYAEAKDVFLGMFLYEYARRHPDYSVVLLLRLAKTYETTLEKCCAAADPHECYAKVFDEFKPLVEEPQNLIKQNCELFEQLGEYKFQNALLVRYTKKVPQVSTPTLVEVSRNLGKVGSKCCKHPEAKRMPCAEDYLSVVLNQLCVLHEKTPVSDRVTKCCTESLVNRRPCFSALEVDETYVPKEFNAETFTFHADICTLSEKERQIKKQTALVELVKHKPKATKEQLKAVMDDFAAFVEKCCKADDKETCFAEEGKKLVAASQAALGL
Experiment: SPR, HSA immobilised;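 note: nanobody analytes injected as dilution series across three log units over CM5 chip with amine-coupled antigen, kinetics fitted by 1:1 Langmuir model, optionally with mass transfer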
Measure: koff (s⁻¹)
Numbers only, in s⁻¹.

Binder | Observed measurement
H16 (VHH) VHH: QVQLVESGGGLVQTGGSLTLSCAASGRTFSTKSMGWFRQAPGKEREFVADINWNGGITHYADSVEGRFTISRDNANDMVYLQMNSLKPEDTAVYYCAGGRYSTLFSKSEADYDYWGQGTQVTVSS | 0.000116

Next, consider the following binder.
Give reported koff value for H2 (VHH) VHH: QVQLVESGGGLVQAGGSLRLSCTASGRTFTPYTIGWFRQAPGKEREFVASILWSGINTDYADSVKGRFAISRDNAKNAAYLQMSNLKPEDTAVYYCATGGGLGYYRSVSQYDYWGQGTQVTVSE
3.99e-05
